System Tested: recombinant human AMPK complex, containing α2β1γ2 (Homo sapiens, UniProt P54646+Q9Y478)
Construct: hsAMPKα2-552-His, hsAMPKβ1-2-270 and hsAMPKγ-2-569 respectively; hsAMPKβ1-2-270; hsAMPKγ-2-569; His (C); made in house; host or cells: Spodoptera frugiperda Sf21 (baculovirus)
Sequence (P54646 2-552): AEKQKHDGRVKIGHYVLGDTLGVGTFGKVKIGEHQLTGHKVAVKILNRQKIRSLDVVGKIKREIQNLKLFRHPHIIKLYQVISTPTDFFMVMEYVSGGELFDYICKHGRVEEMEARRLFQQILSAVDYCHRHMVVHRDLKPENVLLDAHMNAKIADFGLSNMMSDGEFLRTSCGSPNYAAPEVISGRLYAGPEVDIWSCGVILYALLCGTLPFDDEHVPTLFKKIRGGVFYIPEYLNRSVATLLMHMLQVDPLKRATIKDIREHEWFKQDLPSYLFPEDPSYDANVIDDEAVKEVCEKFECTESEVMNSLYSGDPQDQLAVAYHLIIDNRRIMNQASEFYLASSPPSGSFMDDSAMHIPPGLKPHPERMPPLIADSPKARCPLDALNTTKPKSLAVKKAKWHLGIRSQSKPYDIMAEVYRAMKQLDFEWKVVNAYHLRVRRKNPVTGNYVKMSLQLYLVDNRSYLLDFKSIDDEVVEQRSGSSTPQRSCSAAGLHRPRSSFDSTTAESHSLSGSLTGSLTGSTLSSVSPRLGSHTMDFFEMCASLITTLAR
Sequence (Q9Y478 2-270): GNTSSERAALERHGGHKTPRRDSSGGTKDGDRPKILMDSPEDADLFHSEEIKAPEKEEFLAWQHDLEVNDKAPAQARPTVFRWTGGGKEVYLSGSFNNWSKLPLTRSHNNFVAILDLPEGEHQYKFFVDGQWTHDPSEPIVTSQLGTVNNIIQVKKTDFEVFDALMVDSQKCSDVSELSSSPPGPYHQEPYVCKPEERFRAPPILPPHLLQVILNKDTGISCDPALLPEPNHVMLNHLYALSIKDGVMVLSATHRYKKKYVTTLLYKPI
Sequence (Q9UGJ0 2-569 partner limits assumed): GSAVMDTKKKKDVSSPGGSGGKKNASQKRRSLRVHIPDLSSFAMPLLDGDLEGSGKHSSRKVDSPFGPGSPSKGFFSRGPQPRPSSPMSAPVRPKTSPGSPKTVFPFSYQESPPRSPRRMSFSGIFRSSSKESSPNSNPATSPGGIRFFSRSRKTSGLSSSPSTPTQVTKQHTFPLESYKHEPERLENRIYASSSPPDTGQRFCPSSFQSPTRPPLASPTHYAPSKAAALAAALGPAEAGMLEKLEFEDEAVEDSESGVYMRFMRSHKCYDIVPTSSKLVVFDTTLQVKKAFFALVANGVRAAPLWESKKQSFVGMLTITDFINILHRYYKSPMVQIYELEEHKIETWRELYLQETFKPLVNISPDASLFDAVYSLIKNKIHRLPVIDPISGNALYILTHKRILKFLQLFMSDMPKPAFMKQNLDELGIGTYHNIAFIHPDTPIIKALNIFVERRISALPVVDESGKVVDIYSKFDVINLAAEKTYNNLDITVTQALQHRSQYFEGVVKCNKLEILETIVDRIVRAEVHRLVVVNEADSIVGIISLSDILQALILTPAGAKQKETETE
Protocol: AMPK in vitro activation assay (HTRF)
Type: biochemical
Protocol Conditions: potentiation of AMPK activity as percent over the basal signal (without compound)
Structures can show the parent of a compound that is named as a salt.

{"columns": ["Compound", "Reading Unit", "Emax"],
 "data": [
  ["O=C1Nc2cc(Cl)c(-c3ccc(C4CC(O)C4)cc3)cc2C1=C(O)c1cc(C2CC2)no1 (centres unmarked)", "%", 185],
  ["O=C1Nc2cc(Cl)c(-c3ccc(C4(CO)CC4)cc3)cc2C1=C(O)c1cc2ncccc2o1", "%", 172],
  ["O=C1Nc2cc(Cl)c(-c3ccc(C4(CO)CC4)cc3)cc2C1=C(O)c1cc(F)cc(F)c1", "%", 210],
  ["COc1cc(-c2cc3c(cc2Cl)NC(=O)C3=C(O)c2cc(C)no2)ccc1O", "%", 136],
  ["Cc1cc(C(O)=C2C(=O)Nc3cc(Cl)c(-c4ccc(OCCCN5CCNCC5)cc4)cc32)on1 [Compound 69, hydrochloride]", "%", 134],
  ["COc1cc(C(O)=C2C(=O)Nc3cc(F)c(-c4ccc(-c5cccc(OC)c5O)cc4)cc32)on1", "%", 158],
  ["O=C1Nc2cc(Cl)c(-c3ccc(N4CCOCC4)cc3)cc2C1=C(O)c1cccc(C(=O)O)c1", "%", 97],
  ["COc1cc(C(O)=C2C(=O)Nc3cc(Cl)c(-c4ccc(C5(O)CCOCC5)cc4)cc32)on1", "%", 203],
  ["O=C1Nc2cc(Cl)c(-c3ccc(N4CCOCC4)cc3)cc2C1=C(O)c1cccc(C(F)(F)F)c1", "%", 121],
  ["COc1cccc(-c2ccc(-c3cc4c(cc3Cl)NC(=O)C4=C(O)c3cc(C4CC4)no3)cc2)c1O", "%", 129],
  ["COCCOc1cc(C(O)=C2C(=O)Nc3cc(Cl)c(-c4ccc(-c5cccc(OC)c5O)cc4)cc32)on1", "%", 133],
  ["Cc1cc(C(O)=C2C(=O)Nc3cc(Cl)c(-c4ccc(OCC5CCO5)cc4)cc32)on1 (centres unmarked)", "%", 149],
  ["Cc1cc(C(O)=C2C(=O)Nc3cc(Cl)c(-c4ccc(-c5ccco5)cc4)cc32)on1", "%", 113],
  ["O=C1Nc2cc(Cl)c(-c3ccc(N4CCOCC4)cc3)cc2C1=C(O)c1ccc(OC(F)(F)F)c(F)c1", "%", 159],
  ["COc1cc(C(O)=C2C(=O)Nc3cc(Cl)c(-c4ccc(C5(CO)CC5)cc4F)cc32)on1", "%", 175],
  ["O=C1Nc2cc(Cl)c(-c3ccc(-c4ccccc4)cc3)cc2C1=C(O)c1ccccc1", "%", 57],
  ["COc1cc(C(O)=C2C(=O)Nc3cc(Cl)c(-c4ccc(N(C)C5CC5)cc4)cc32)on1", "%", 234],
  ["O=C1Nc2cc(Cl)c(-c3ccc(N4CCOCC4)cc3)cc2C1=C(O)c1cccc(N2CCOCC2)c1", "%", 150],
  ["COc1ccc(-c2cc3c(cc2Cl)NC(=O)C3=C(O)c2cc(C)no2)cc1", "%", 223],
  ["CC(=O)NCCOc1ccc(-c2cc3c(cc2Cl)NC(=O)C3=C(O)c2cc(C)no2)cc1", "%", 107],
  ["O=C1Nc2cc(Cl)c(-c3ccc(N4CCOCC4)cc3)cc2C1=C(O)c1cc(C2CC2)on1", "%", 254],
  ["O=C1Nc2cc(Cl)c(-c3ccc(C4CC(O)C4)cc3)cc2C1=C(O)c1ccccc1F (centres unmarked)", "%", 197],
  ["O=C1Nc2cc(Cl)c(-c3ccc(C4(CO)CC4)cc3)cc2C1=C(O)c1ccco1", "%", 295]
]}
